Tested on: A549/ATCC NSCLC
Experiment: NCI-60 one-dose screen, 48 h (100 = growth as untreated, 0 = no growth, -100 = all killed)
Conditions: 10 µM unless noted
The panel holds about 83,000 compounds, 20% with a hit somewhere; the sample as a whole holds those more often. The source made the active and inactive calls. How the source made its calls: active means growth percent below 10; inactive means the rest.
value kind: growth

Entry under test: Brc1cccc(-c2cc(-c3ccc4nccnc4c3)[nH]n2)c1 . Its growth was 31.2% [25 µM] (inactive)

Entry under test: COc1ccc2c(c1)NC1=C(C(=O)OC1)C2c1cc(OC)c2c(c1)OCO2 (stereo not given) . Its growth was 12% (inactive)

Entry under test: O=C(NNC(=S)Nc1ccccc1)c1cc2ccc1CCc1ccc(cc1)CC2 . Its growth was 59.2% (inactive)

Entry under test: C/C=C(\C)C(C(=O)NC1CCCCC1)N(C(=O)C1CCc2cc(F)ccc2O1)c1ccc(Cl)cc1 (stereo not given) . Its growth was 96.2% (inactive)

Entry under test: O=C(C1=Cc2cc3ccccc3n2Cc2cnnn21)c1ccccc1 . Its growth was 58.5% (inactive)

---

Provide the recorded growth for the entries that follow.
Tested on: RXF 393 renal
Experiment: NCI-60 one-dose screen, 48 h (100 = growth as untreated, 0 = no growth, -100 = all killed)
Conditions: 10 µM unless noted
This is part of a sample that, as a whole, favours compounds with a hit. Of some 83,000 tested, about 20% had one in any assay.
Respond with the bare value in %.

Entry under test: Cc1ccc(C(=O)NCCCNc2nccc(-n3ccc4cccnc43)n2)cc1 . Its growth was 102

Entry under test: COc1ccc(C(=O)N2NC(=O)/C(=C/c3cn(-c4ccccc4)nc3-c3ccccc3)N=C2c2ccccc2)cc1 . Its growth was 104

Entry under test: CCOC(=O)/C(C#N)=C1/C(=O)Nc2ccccc21 . Its growth was 117

Entry under test: C=C(C)[C@@H]1C[C@@H]2Cc3cc(F)ccc3N1O2 . Its growth was 108

Entry under test: C=C1CCC[C@]2(C)CCC[C@H](C)[C@@H](OC(C)=O)[C@@H]3OC(=O)C(=C)[C@@H]3C[C@H]1O2 . Its growth was 70.1

Entry under test: O=S(=O)(NCCNc1nccc(-c2c(-c3ccc(F)cc3)nc3sccn23)n1)c1ccc(F)cc1 . Its growth was 70

Entry under test: CCCCCCCCC(C)OC(=O)c1nn(C(C)=O)c2ccccc12 (configuration not stated) . Its growth was 105

Entry under test: C1=Cc2ccccc2N(c2nnc(-c3ccccc3)o2)c2ccccc21 . Its growth was 91.1

Entry under test: CC1CN(c2oc(-c3ccccc3)nc2C#N)CC(C)O1 (configuration not stated) . Its growth was 104

Entry under test: COc1ccc(S(=O)(=O)n2cc(C(=O)C(=O)Nc3ccncc3)c3ccccc32)cc1F . Its growth was 90.9

Entry under test: N/C(=N\C(N)=N\c1nc2ccccc2s1)c1ccncc1 . Its growth was 65.7

Entry under test: O=S(=O)(c1ccc(OCCO)cc1)c1ccc(OCCO)cc1 . Its growth was 119

Entry under test: COc1cc(C(=O)/C=C/c2ccc3nc(-c4cc(F)cc(F)c4)sc3c2)cc(OC)c1OC . Its growth was 110

Entry under test: CCOC(=O)C1CCNC(=O)C1=O (configuration not stated) . Its growth was 108

Entry under test: COc1cc2c(cc1OCCCCCn1c3ccccc3c3ccccc31)N=C[C@@H]1CCCN1C2=O . Its growth was -80.7

Entry under test: CC1CCC(C)N(C)C1 (configuration not stated) . Its growth was 100

Entry under test: N[C@@H]1CCN(C(=O)c2cc3cc(Cl)c(F)c(F)c3[nH]2)C1 . Its growth was 87.1

Entry under test: O=C(NCc1cn(Cc2cccc(Oc3ccccc3)c2)nn1)c1cccnc1Nc1ccc(F)cc1 . Its growth was 65.9

Entry under test: CC(C)(C)N1CCC1C(N)=O (configuration not stated) . Its growth was 103

Entry under test: CN1CCN(Cc2ccc(NC(=O)c3nc4ccc5[nH]ncc5c4c4c3CCC4)cc2C(F)(F)F)CC1 . Its growth was 67.9

Entry under test: Cc1ccc(S(=O)(=O)n2cc(C(=O)C(=O)N3CCOCC3)c3ccccc32)cc1 . Its growth was 110

Entry under test: CCCCN(CCCC)C(=O)CC . Its growth was 128
